Test system: Brugia malayi
experimentDescription: Antifilarial activity against adult Brugia malayi at 31.25 ug/ml by MTT assay relative to control
Type: functional
parameterMeasured: inhibition at 31.25 µg/mL (%)

compound="Oc1ccc([C@H]2Oc3cc(O)cc(O)c3C[C@H]2O)cc1 [EPIAFZELECHIN (2R,3R)(-)]" testvalue=14.8
compound=O=C(O)c1ccc(O)c(O)c1 testvalue=20.6
compound="Oc1cc(O)c2c(c1)O[C@@H](c1ccc(O)c(O)c1)[C@H](O)C2 [(-)-CATECHIN]" testvalue=43.2
compound="Oc1cc(O)c2c(c1)O[C@H](c1ccc(O)c(O)c1)[C@H](O)C2 [(-)-EPICATECHIN]" testvalue=34.8
compound=CCCCCCCC/C=C\CCCCCCCC(=O)OC[C@H](CO[C@@H]1O[C@H](CO[C@H]2O[C@H](CO)[C@H](O)[C@H](O)[C@H]2O)[C@H](O)[C@H](O)[C@H]1O)OC(=O)CCCCCCCCCCCCCCC testvalue=24.6
